System: Staphylococcus aureus (methicillin-resistant and sensitive clinical isolates; ATCC29213)
test-protocol: MIC by micro broth dilution (CLSI), Staphylococcus aureus
Assay type: cell-based
condition-label: Standard strain ATCC29213, read-out: MIC
property-measured: MIC (µg/mL)

(A) O=[N+]([O-])c1ccc2c(Br)ccnc2c1O
(B) CN1CCN(c2ccnc3c(O)c([N+](=O)[O-])cc(Cl)c23)CC1
Short answer wanted: higher MIC, A or B ? Selection: enter the item's label.
B

====

Tested on: Prostate cancer cell line LNcaP
test-protocol: Inhibitory activity on cancer cells, CellTiter-Glo viability, LNcaP
Format: cell-based
condition-label: Homo sapiens, 72 hours treatment
property-measured: IC50 (µM)

O=[N+]([O-])c1cc(Cl)c2c(OC3CCCCC3)ccnc2c1O | 0.64
CCOC(=O)N1CCN(c2ccnc3c(O)c([N+](=O)[O-])cc(Cl)c23)CC1 | 0.58
CC1CCCN(c2ccnc3c(O)c([N+](=O)[O-])cc(Cl)c23)C1 (stereo not drawn) | 1.36

(a) COc1c(C2CC2)cnc2c(O)c([N+](=O)[O-])ccc12
(b) COC(=O)N1CCN(c2ccnc3c(O)c([N+](=O)[O-])ccc23)CC1
I'd appreciate it if you could identify which of a and b has the greater IC50. Identify your selection by its label.
b
(b: 11.9 µM, a: 1.77 µM)

(a) O=[N+]([O-])c1ccc2c(-c3ccccc3)ccnc2c1O
(b) O=[N+]([O-])c1cc(Cl)c2c(F)ccnc2c1O
(c) COc1ccnc2c(O)c([N+](=O)[O-])ccc12
// smallest IC50 at index 0, largest at the end Please reply with the labels ordered as requested. Many thanks.
a, c, b
(a: 2.31 µM, c: 6.75 µM, b: 13.2 µM)

(I) O=[N+]([O-])c1cc(F)c2c(OCC3CC3)ccnc2c1O
(II) N#Cc1ccnc2c(O)c([N+](=O)[O-])ccc12
Which has the smaller recorded IC50, I or II ? State the label of the item chosen.
I

The measured values listed here are drawn from patent US20240246916A1.
